Assignment: determine reported GI50 for the given compounds.
- ASSAY OVERVIEW: Growth inhibition of human OVCAR4 cells incubated for 48 hrs by sulforhodamine B assay
- Format: functional
- REPORTED CONDITIONS: OVCAR-4, 48 h
# value in µM; strip the unit string

Record CC(C)[C@@]12C[C@@H](NC(=O)CO)[C@@](C)(O1)[C@@H]1CC[C@@H](C)[C@H]1[C@@H]2OC(=O)c1ccc2ccccc2c1 . Reported GI50: 16.2

Recorded GI50 (compound CC(C)[C@@]12C[C@@H](NC(=O)CO)[C@@](C)(O1)[C@@H]1CC[C@@H](C)[C@H]1[C@@H]2OC(=O)/C=C/c1ccccc1 ): 17.8

Lab note: measured GI50 of C/C(=C\C(=O)O[C@H]1[C@@H]2[C@H](C)CC[C@H]2[C@]2(C)O[C@@]1(C(C)C)C[C@H]2NC(=O)CO)c1ccccc1 was 35.5
